target.system: wt κ receptor (Rattus norvegicus)
Construct: expressed in transfected cells; host or cells: COS-7 (per the earlier reading)
experimental.protocol: Competition binding with [3H]diprenorphine, whole cell binding, COS-7 cells, wt κ
value.type: pKi
Numbers only, as −log10 of the molar value.

*Q* Can you look up the measured pKi of N#C/N=C(\N)Nc1ccc2[nH]c3c(c2c1)C[C@@]1(O)C2Cc4ccc(O)c5c4[C@@]1(CCN2CC1CC1)C3O5 (stereo partly shown) for me?
*A* 9.57

* * *

target.system: kappa (OP2) opioid receptor (Cavia porcellus, UniProt P41144)
Construct: a strip of longitudinal muscle with the myenteric plexus attached was prepared; from tissue; host or cells: guinea pig ileal longitudinal muscle with myenteric plexus
experimental.protocol: Guinea pig ileal longitudinal muscle (GPI) smooth muscle assay, antagonism of ethylketazocine (EKC)
Assay type: cell-based
experimental.context: GPI; agonist EKC; antagonist concentration 100 nM; read-out: Antagonist Potency Ke κ(OP2) EKC
Lab note: anything with Kb below 0.2 nM is marked Satisfied; values at 0.2 nM or higher are marked Not satisfied.

Some solved cases for reference:
>  <compound>
CCNC(=N)Nc1ccc2[nH]c3c(c2c1)C[C@@]1(O)[C@H]2Cc4ccc(O)c5c4[C@@]1(CCN2CC1CC1)[C@H]3O5.O.O.O=C(O)C(F)(F)F.O=C(O)C(F)(F)F

>  <class.assignment>
Satisfied

$$$$
>  <compound>
Oc1ccc2c3c1O[C@H]1c4[nH]c5c(c4C[C@@]4(O)[C@@H](C2)N(CC2CC2)CC[C@]314)C[C@@]1(O)[C@H]2Cc3ccc(O)c4c3[C@@]1(CCN2CC1CC1)[C@H]5O4 [nor-BNI, norbinaltorphimine, reference compound]

>  <class.assignment>
Not satisfied

$$$$
>  <compound>
CNC(=N)Nc1ccc2[nH]c3c(c2c1)C[C@@]1(O)[C@H]2Cc4ccc(O)c5c4[C@@]1(CCN2CC1CC1)[C@H]3O5.O.O.O=C(O)C(F)(F)F.O=C(O)C(F)(F)F

>  <class.assignment>
Not satisfied

$$$$
>  <compound>
CCCCNC(=N)Nc1ccc2[nH]c3c(c2c1)C[C@@]1(O)[C@H]2Cc4ccc(O)c5c4[C@@]1(CCN2CC1CC1)[C@H]3O5.O.O.O=C(O)C(F)(F)F.O=C(O)C(F)(F)F

>  <class.assignment>
Satisfied

$$$$

Okay, next one:
*Q* Dear reviewer, please state whether Oc1ccc2c3c1O[C@H]1c4[nH]c5ccccc5c4C[C@@]4(O)[C@@H](C2)N(CC2CC2)CC[C@]314 [Naltrindole (NTI) 1, naltrindole, reference compound] has Kb strictly beneath 0.2 nM.
*A* Not satisfied

* * *

target.system: wt μ receptor (Rattus norvegicus)
Construct: expressed in transfected cells; host or cells: COS-7 (per the earlier reading)
experimental.protocol: Competition binding with [3H]diprenorphine, whole cell binding, COS-7 cells, wt μ
value.type: pKi
One number for each entry, as −log10 of the molar value.

*Q* Can you look up the measured pKi of N#C/N=C(\N)Nc1ccc2[nH]c3c(c2c1)C[C@@]1(O)C2Cc4ccc(O)c5c4[C@@]1(CCN2CC1CC1)C3O5 (stereo partly shown) for me?
*A* 8.39

* * *

target.system: μ[K303E] receptor (Rattus norvegicus, UniProt P33535, K303E)
Construct: expressed in transfected cells; host or cells: COS-7 (per the earlier reading)
experimental.protocol: Competition binding with [3H]diprenorphine, whole cell binding, COS-7 cells, μ[K303E]
Text: The effects of mutational exchange of Glu297 in the κ receptor and Lys303 in the μ receptor on the binding affinity of representative compounds of the invention were examined using techniques known in the art.
value.type: Ki (pM)
One number for each entry, in pM.

*Q* Can you look up the measured Ki of N#C/N=C(\N)Nc1ccc2[nH]c3c(c2c1)C[C@@]1(O)C2Cc4ccc(O)c5c4[C@@]1(CCN2CC1CC1)C3O5 (stereo partly shown) for me?
*A* 290

* * *

Tested on: μ(OP3) opioid receptor
experimental.protocol: Guinea pig ileal longitudinal muscle (GPI) smooth muscle assay, antagonism of morphine
Format: cell-based
experimental.context: agonist morphine, antagonist concentration 100 nM
value.type: Antagonist Potency Ke μ(OP3) Morphine (nM)
One number for each entry, in nM.

>  <compound>
CCNC(=N)Nc1ccc2[nH]c3c(c2c1)C[C@@]1(O)[C@H]2Cc4ccc(O)c5c4[C@@]1(CCN2CC1CC1)[C@H]3O5.O.O.O=C(O)C(F)(F)F.O=C(O)C(F)(F)F

>  <readout.units>
nM

>  <Antagonist Potency Ke μ(OP3) Morphine>
19.00

$$$$
>  <compound>
N#C/N=C(\N)Nc1ccc2[nH]c3c(c2c1)C[C@@]1(O)C2Cc4ccc(O)c5c4[C@@]1(CCN2CC1CC1)C3O5 (stereo partly drawn)

>  <readout.units>
nM

>  <Antagonist Potency Ke μ(OP3) Morphine>
16.13

$$$$

// next entry
*Q* Form: Entry = N=C(N)Nc1ccc2[nH]c3c(c2c1)C[C@@]1(O)[C@H]2Cc4ccc(O)c5c4[C@@]1(CCN2CC1CC1)[C@H]3O5.O.O.O=C(O)C(F)(F)F.O=C(O)C(F)(F)F | System = μ(OP3) opioid receptor | Antagonist Potency Ke μ(OP3) Morphine = ____
*A* 30.00

* * *

Record form. Attribute: Antagonist Potency Ke μ(OP3) Morphine. Fill in for each entry.
System: μ(OP3) opioid receptor
experimental.protocol: Guinea pig ileal longitudinal muscle (GPI) smooth muscle assay, antagonism of morphine
Assay type: cell-based
experimental.context: agonist morphine, antagonist concentration 100 nM
Experimental: 1. Guinea Pig Ileal Longitudinal Muscle (GPI). […] A 1 cm portion of this strip was then mounted between two platinum electrodes placed in a 10 ml organ bath and connected to an isometric transducer, contractions were recorded on a polygraph. […] Cumulative concentration-response curves were determined after drugs were added to the bath in preselected amounts and washed out with buffer after noting their maximum effects. […]
Answers are plain numbers, in nM.

Provide each entry's Antagonist Potency Ke μ(OP3) Morphine from the list below.
1. N#C/N=C(\NCCN1CCCC1)Nc1ccc2[nH]c3c(c2c1)C[C@@]1(O)C2Cc4ccc(O)c5c4[C@@]1(CCN2CC1CC1)C3O5 (stereo partly shown) [Compound 21]
2. CNC(=N)Nc1ccc2[nH]c3c(c2c1)C[C@@]1(O)[C@H]2Cc4ccc(O)c5c4[C@@]1(CCN2CC1CC1)[C@H]3O5.O.O.O=C(O)C(F)(F)F.O=C(O)C(F)(F)F [Compound 18]
3. Oc1ccc2c3c1O[C@H]1c4[nH]c5c(c4C[C@@]4(O)[C@@H](C2)N(CC2CC2)CC[C@]314)C[C@@]1(O)[C@H]2Cc3ccc(O)c4c3[C@@]1(CCN2CC1CC1)[C@H]5O4 [nor-BNI, norbinaltorphimine, reference compound]
4. CN(C)CCCN/C(=N\C#N)Nc1ccc2[nH]c3c(c2c1)C[C@@]1(O)C2Cc4ccc(O)c5c4[C@@]1(CCN2CC1CC1)C3O5 (stereo partly shown) [Compound 20]

*A*
1. 5.71
2. 10.8
3. 13.7
4. 10.4
